The reported numbers originate from ChEMBL document CHEMBL5120797.

Assay: Binding affinity to MEK1/2 (unknown origin) assessed as dissociation constant
Design: species or system Homo sapiens
Recorded pKd by entry
Scale for pKd: -log10 of concentration given in mol/L; no unit attached.

Inquiry: I'd like to know its pKd. The compound in question is Cn1cnc2c(F)c(Nc3ccc(Br)cc3Cl)c(C(=O)NOCCO)cc21
Reply text: 7.85

Further cases:
Inquiry: Which value of pKd has been reported for CC(=O)Nc1cccc(-n2c(=O)n(C3CC3)c(=O)c3c(Nc4ccc(I)cc4F)n(C)c(=O)c(C)c32)c1 in the records?
Reply text: 8.52

----------
Molecular target: Hepatocyte growth factor receptor (Homo sapiens, UniProt P08581)
Sequence (P08581 whole entry): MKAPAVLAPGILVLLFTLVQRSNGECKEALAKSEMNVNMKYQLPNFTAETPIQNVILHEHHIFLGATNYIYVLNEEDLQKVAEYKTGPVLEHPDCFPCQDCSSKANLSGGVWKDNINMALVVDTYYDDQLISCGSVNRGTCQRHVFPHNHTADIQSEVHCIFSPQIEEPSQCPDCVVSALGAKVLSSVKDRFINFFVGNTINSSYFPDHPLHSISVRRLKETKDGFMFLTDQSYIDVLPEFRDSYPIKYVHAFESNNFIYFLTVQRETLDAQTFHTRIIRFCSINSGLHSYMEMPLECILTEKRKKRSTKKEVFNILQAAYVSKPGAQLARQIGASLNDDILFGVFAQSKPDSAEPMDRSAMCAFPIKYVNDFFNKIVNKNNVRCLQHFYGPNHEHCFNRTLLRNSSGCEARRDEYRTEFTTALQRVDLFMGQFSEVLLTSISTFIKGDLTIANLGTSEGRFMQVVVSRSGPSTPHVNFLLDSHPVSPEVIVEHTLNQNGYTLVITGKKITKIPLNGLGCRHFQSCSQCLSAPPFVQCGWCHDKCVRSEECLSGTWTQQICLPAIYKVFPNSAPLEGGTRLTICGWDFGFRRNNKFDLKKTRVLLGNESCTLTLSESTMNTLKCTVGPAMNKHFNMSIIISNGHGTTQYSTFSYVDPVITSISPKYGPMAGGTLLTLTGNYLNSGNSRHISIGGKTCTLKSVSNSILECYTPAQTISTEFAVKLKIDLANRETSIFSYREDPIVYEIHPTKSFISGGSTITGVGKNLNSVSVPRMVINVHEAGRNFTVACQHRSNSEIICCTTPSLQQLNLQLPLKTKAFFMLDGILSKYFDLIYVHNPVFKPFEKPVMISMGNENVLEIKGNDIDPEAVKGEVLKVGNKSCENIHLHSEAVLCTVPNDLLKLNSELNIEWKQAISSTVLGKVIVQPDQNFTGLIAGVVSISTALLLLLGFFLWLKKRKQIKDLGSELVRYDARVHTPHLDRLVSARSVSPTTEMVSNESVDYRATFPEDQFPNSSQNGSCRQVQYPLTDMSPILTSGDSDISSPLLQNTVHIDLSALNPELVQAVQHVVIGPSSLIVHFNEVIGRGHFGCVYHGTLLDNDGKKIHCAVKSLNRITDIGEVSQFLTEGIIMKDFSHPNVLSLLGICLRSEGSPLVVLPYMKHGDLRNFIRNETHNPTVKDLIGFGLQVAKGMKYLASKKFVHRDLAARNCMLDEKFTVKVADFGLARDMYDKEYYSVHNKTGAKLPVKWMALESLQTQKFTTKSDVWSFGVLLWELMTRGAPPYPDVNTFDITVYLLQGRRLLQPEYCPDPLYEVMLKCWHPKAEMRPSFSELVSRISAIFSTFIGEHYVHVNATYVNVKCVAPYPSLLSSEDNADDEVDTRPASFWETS
Experiment: Inhibition of c-Met (unknown origin)
reported metric: IC50 (nM)
Reply with just the number (in nM).

Inquiry: Requested field: IC50. Item: O=C1NC(=O)[C@@H](c2cn3c4c(cccc24)CCC3)[C@@H]1c1c[nH]c2ccccc12 [TIVANTINIB]
Reply text: 360
